Test: Selectivity index, ratio of IC50 against rat L6 cells to IC50 against Trypanosoma cruzi Tuluhaen C2C4
Format: toxicity, cell-based
Conditions: read-out: Ratio IC50
Criterion: selectivity ratio strictly less than 4. Met: condition met. Not met: condition not met.

stdin: I wonder whether "CCCCCCCC[C@H]1CCC(=O)c2[nH]c(C)c(OC)c(=O)c21" has selectivity ratio below 4. Can you tell?
stdout: condition not met

stdin: I wonder whether "COc1c(C)n(OC)c2c(c1=O)[C@@H](CCCCCc1ccccc1)CCC2" has selectivity ratio below 4. Can you tell?
stdout: condition not met

stdin: I wonder whether "CCCCCCCCc1ccc(OC)c2[nH]c(C)c(OC)c(=O)c12" has selectivity ratio below 4. Can you tell?
stdout: condition not met

stdin: I wonder whether "CCCCCCCC[C@H]1CC[C@@H](OC)c2c1c(=O)c(OC)c(C)n2OC" has selectivity ratio below 4. Can you tell?
stdout: condition met

stdin: I wonder whether "COc1c(OC)c(C)[n+]([O-])c2c1[C@H](CCCCCc1ccccc1)CCC2" has selectivity ratio below 4. Can you tell?
stdout: condition not met

stdin: I wonder whether "CCCCCCCC[C@@H]1CCCc2[nH]c(C)c(OC)c(=O)c21" has selectivity ratio below 4. Can you tell?
stdout: condition met

stdin: I wonder whether "COc1c(C)n(OC)c2c(c1=O)[C@@H](CCCCCc1ccccc1)CC[C@H]2OC" has selectivity ratio below 4. Can you tell?
stdout: condition not met

stdin: I wonder whether "CCCCCCCC[C@H]1CCCc2c1c(=O)c(OC)c(C)n2OC" has selectivity ratio below 4. Can you tell?
stdout: condition met

stdin: I wonder whether "CCCCCCCC[C@@H]1CCCc2c1c(=O)c(OC)c(CO)n2OC" has selectivity ratio below 4. Can you tell?
stdout: condition not met

###

Tested on: Trypanosoma cruzi
Assay: Antitrypanosomal activity against LacZ expressing Trypanosoma cruzi Tuluhaen C2C4 amastigotes
Format: functional, organism-based
For each of the compounds below, state its IC50.
One number for each entry, in nM.

These solved cases illustrate the format of a correct answer.
>>> df
                                   compound  assay_readout  value
0   CCCCCCCC[C@H]1CCCc2c1c(=O)c(OC)c(C)n2OC           IC50    100
1  CCCCCCCCc1ccc(OC)c2[nH]c(C)c(OC)c(=O)c12           IC50   1100
2  CCCCCCCC[C@H]1CC[C@@H](OC)c2c1c(=O)c(OC)c(C)n2OC           IC50     40
3  COc1c(OC)c(C)[n+]([O-])c2c1[C@H](CCCCCc1ccccc1)CCC2           IC50   3100
4  CCCCCCCC[C@H]1CC[C@@H](OC)c2[nH]c(C)c(OC)c(=O)c21           IC50    230
5  CCCCCCCC[C@@H]1CCCc2c1c(=O)c(OC)c(CO)n2OC           IC50   2200
6  CCCCCCCC[C@@H]1CCCc2[nH]c(C)c(OC)c(=O)c21           IC50    490
7  COc1c(C)n(OC)c2c(c1=O)[C@@H](CCCCCc1ccccc1)CC[C@H]2OC           IC50     40
8  O=C(Cn1ccnc1[N+](=O)[O-])NCc1ccccc1 [BENZNIDAZOLE]           IC50   2900
9  COc1c(C)n(OC)c2c(c1=O)[C@@H](CCCCCc1ccccc1)CCC2           IC50     20

# ---- query compound ----
stdin: Given "CCCCCCCC[C@H]1CCC(=O)c2[nH]c(C)c(OC)c(=O)c21" , state its recorded IC50.
stdout: 170

###

For each of the compounds below, state its IC50.
System: Trypanosoma brucei brucei
Assay: Antitrypanosomal activity against Trypanosoma brucei brucei NYSM bloodstream forms incubated for 46 hrs by alamar blue assay
Type: functional, organism-based
One number for each entry, in µM.

compound	units symbol	IC50
Cc1ccc(C(=O)Nc2ccc(S(=O)(=O)O)c3cc(S(=O)(=O)O)cc(S(=O)(=O)O)c23)cc1NC(=O)c1cccc(NC(=O)Nc2cccc(C(=O)Nc3cc(C(=O)Nc4ccc(S(=O)(=O)O)c5cc(S(=O)(=O)O)cc(S(=O)(=O)O)c45)ccc3C)c2)c1 [SURAMIN]	µM	0.31

Batch request: IC50 per item, same order as input.
1. CCCCCCCCc1ccc(OC)c2[nH]c(C)c(OC)c(=O)c12
2. CCCCCCCC[C@H]1CC[C@@H](OC)c2[nH]c(C)c(OC)c(=O)c21
3. COc1c(C)n(OC)c2c(c1=O)[C@@H](CCCCCc1ccccc1)CCC2

stdout:
31
80.3
24.1

###

For each of the molecules below, state its pIC50.
Test system: Trypanosoma brucei rhodesiense
Assay: Antitrypanosomal activity against Trypanosoma brucei rhodesiense STIB900 trypomastigote forms
Assay type: functional, organism-based
One number for each entry, as −log10 of the molar value.

These solved cases illustrate the format of a correct answer.
>>> print(df.to_string())
                               entry_smiles  assay_readout  value
0   CCCCCCCC[C@H]1CCCc2c1c(=O)c(OC)c(C)n2OC          pIC50   4.27
1  COc1c(C)n(OC)c2c(c1=O)[C@@H](CCCCCc1ccccc1)CCC2          pIC50   4.52
2  CCCCCCCC[C@H]1CC[C@@H](OC)c2c1c(=O)c(OC)c(C)n2OC          pIC50   4.34

Batch request: pIC50 per item, same order as input.
1. CCCCCCCC[C@@H]1CCCc2[nH]c(C)c(OC)c(=O)c21
2. CCCCCCCC[C@H]1CC[C@@H](OC)c2[nH]c(C)c(OC)c(=O)c21
3. CCCCCCCC[C@@H]1CCCc2c1c(=O)c(OC)c(CO)n2OC
4. CCCCCCCC[C@H]1CCC(=O)c2[nH]c(C)c(OC)c(=O)c21
5. COc1c(OC)c(C)[n+]([O-])c2c1[C@H](CCCCCc1ccccc1)CCC2
6. COc1c(C)n(OC)c2c(c1=O)[C@@H](CCCCCc1ccccc1)CC[C@H]2OC
7. CCCCCCCCc1ccc(OC)c2[nH]c(C)c(OC)c(=O)c12

stdout:
4.49
4.41
4.06
4.84
4.25
4.44
4.41
